B1: Steroid hormone receptor ERR2, residues 100 to 176; numbered along this chain, O95718 (parent)
chain: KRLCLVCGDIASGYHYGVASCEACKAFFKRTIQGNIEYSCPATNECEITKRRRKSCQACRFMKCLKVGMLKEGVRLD

variants of: B1; experiment: abundance fitness (aPCA) (normalised: wild type 0, dead -1); higher = more abundant; growth selection in yeast, the domain comes from the species named; conditions: Homo sapiens
Quick reference for abundance fitness among some variants

- construct-sequence: "KRLCLVCGDIASGYHYGVASCEACKAFFKRTIQGNIEYSCPATNECEITKRRRKSCQACRFMLCLKVGMLKEGVRLD"
  abundance fitness: -0.55
- construct-sequence: "KRLCLVCGDIASGYHYGVASCEACKAFFKRTIQGNIEYSCPATNECEITKRRRKSCQACQFMKCLKVGMLKEGVRLD"
  abundance fitness: 0.173
- construct-sequence: "KRLCLVCGDIASGYHYGVASCEACKAFFKRTIQGNIEYSCPATNECEITKRRRCSCQACRFMKCLKVGMLKEGVRLD"
  abundance fitness: -0.351
- construct-sequence: "KRLCLVCGDIASGYHYGVASCEACFAFFKRTIQGNIEYSCPATNECEITKRRRKSCQACRFMKCLKVGMLKEGVRLD"
  abundance fitness: 0.194
- construct-sequence: "KRLCLVCGDIASGYHYGVASCEACKAFFKRTIQGPIEYSCPATNECEITKRRRKSCQACRFMKCLKVGMLKEGVRLD"
  abundance fitness: 0.012
- construct-sequence: "KRLCLVCGDIASGYHYGVAYCEACKAFFKRTIQGNIEYSCPATNECEITKRRRKSCQACRFMKCLKVGMLKEGVRLD"
  abundance fitness: -0.109
- construct-sequence: "KRLVLVCGDIASGYHYGVASCEACKAFFKRTIQGNIEYSCPATNECEITKRRRKSCQACRFMKCLKVGMLKEGVRLD"
  abundance fitness: -0.917
- construct-sequence: "KRLCLVCGDIASGYHYGVTSCEACKAFFKRTIQGNIEYSCPATNECEITKRRRKSCQACRFMKCLKVGMLKEGVRLD"
  abundance fitness: -0.085
- construct-sequence: "KRLCLVCGDIASGPHYGVASCEACKAFFKRTIQGNIEYSCPATNECEITKRRRKSCQACRFMKCLKVGMLKEGVRLD"
  abundance fitness: -0.315
- construct-sequence: "KRLCLVCGDIASGYHYGVASCEACKAFFKRTIQGNIEYSCPATNECEITKWRRKSCQACRFMKCLKVGMLKEGVRLD"
  abundance fitness: 0.022
- construct-sequence: "KRLCLVCGDIASGYHYGVASCEACKAFFKRTIQGNIEYSCPATNECEITKRRRKSCQVCRFMKCLKVGMLKEGVRLD"
  abundance fitness: -0.772
- construct-sequence: "KRLCLVCGDIASGYHYGVASCEACKAFFKRTIQGNIEYSCPATNECEITKRGRKSCQACRFMKCLKVGMLKEGVRLD"
  abundance fitness: 0.062
- construct-sequence: "KRLCLVCGDIASGYHYGVASCSACKAFFKRTIQGNIEYSCPATNECEITKRRRKSCQACRFMKCLKVGMLKEGVRLD"
  abundance fitness: -0.154
- construct-sequence: "KRLCLVCGDIASGYHYGVASCEACKAFFKRTIQGNIEYSCPATNECAITKRRRKSCQACRFMKCLKVGMLKEGVRLD"
  abundance fitness: -0.102
- construct-sequence: "KRLCLVCGDIASGYHYGVESCEACKAFFKRTIQGNIEYSCPATNECEITKRRRKSCQACRFMKCLKVGMLKEGVRLD"
  abundance fitness: 0.043
- construct-sequence: "KRLCLVCGDIASGYHYGVASCEACKAFFKRTIQGNIEYSCPATNECEITKRRRKSCQACRMMKCLKVGMLKEGVRLD"
  abundance fitness: 0
- construct-sequence: "KRLCLVCGLIASGYHYGVASCEACKAFFKRTIQGNIEYSCPATNECEITKRRRKSCQACRFMKCLKVGMLKEGVRLD"
  abundance fitness: -0.454
- construct-sequence: "KRLCLVCGDIASGYHYGVASCEACKAFFKRTIQGNIEYSCPATNECEITKRRRKLCQACRFMKCLKVGMLKEGVRLD"
  abundance fitness: 0.341
- construct-sequence: "KRLCLVCGDIASGYHYGVASCEACKAFFKRTIQGNIEYSCPATNECEITKRRYKSCQACRFMKCLKVGMLKEGVRLD"
  abundance fitness: -0.14
- construct-sequence: "KRLCLVCGDWASGYHYGVASCEACKAFFKRTIQGNIEYSCPATNECEITKRRRKSCQACRFMKCLKVGMLKEGVRLD"
  abundance fitness: 0.074
- construct-sequence: "KRLCLVCGDIASGYHYGVASCEACKAFFKRTIQGNIEYSCPATNECEITKRRRKSCQACRFMMCLKVGMLKEGVRLD"
  abundance fitness: -0.11
- construct-sequence: "KRLCLVCGDIASGYHYGVASCEACKAFFKRTIQGNIEYSCPATNECEITKRRRKSCQACRFDKCLKVGMLKEGVRLD"
  abundance fitness: -0.057
- construct-sequence: "KRLCLVCGDIASGYHYGVKSCEACKAFFKRTIQGNIEYSCPATNECEITKRRRKSCQACRFMKCLKVGMLKEGVRLD"
  abundance fitness: -0.135
- construct-sequence: "KRLCLVCGDIASGYHYGVASCEACKAFFKRTIQINIEYSCPATNECEITKRRRKSCQACRFMKCLKVGMLKEGVRLD"
  abundance fitness: -0.336
- construct-sequence: "KRLCLVCGDIASGYHYGVASCEACKAFFKRTIQGNIEYSCPATNECEITKRRRKSCQACRKMKCLKVGMLKEGVRLD"
  abundance fitness: -0.266
- construct-sequence: "KRLCLVCGDIASGYHYGVASIEACKAFFKRTIQGNIEYSCPATNECEITKRRRKSCQACRFMKCLKVGMLKEGVRLD"
  abundance fitness: -0.693
